Values were extracted from PubChem BioAssay AID648.

assay: endothelial cell growth inhibition – HUVEC, 384-well, primary screen (AID 648); settings: HUVEC proliferation, CellTiter-Glo luminescence, 72 h; active compounds read low; screened at 10 µM (by protocol);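 note: 100% = median luminescence of DMSO-only cell control wells on each plate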
Hit rate of the full screen: of about 86,000 compounds, about 920 (1.1%) were called active. The sample holds actives, similar compounds and a random draw of the others, so the mix is not that of the screen.
I'd appreciate it if you could supply viability values for the items below.
The reply should contain only the number, in %.

In: Tell us which viability value is on record for Cc1ccc(S(=O)(=O)NCCSC(C)(C)C)cc1
Out: 103

In: Look up and state reported viability for O=C(C(NS(=O)(=O)c1cccc2nsnc12)c1ccccc1)N1CCN(c2ccccc2)CC1 (stereo unspecified)
Out: 101

In: Report viability, nothing else, for this molecule: COc1ccccc1C(=O)N1CC2(C)CC1CC(C)(C)C2 (stereo unspecified)
Out: 94

In: Determine from records and report viability for CCCCOC(=O)Cn1c(=N)n(CCN(CC)CC)c2ccccc21
Out: 104

In: Answer with the recorded viability for the molecule listed here: c1ccc(-c2nc(NCc3ccco3)c3ccccc3n2)cc1
Out: 85.5

In: Give recorded viability. COc1ccc(CCNC(=O)CN(c2ccccc2)S(C)(=O)=O)cc1OC
Out: 94.6

In: Identify measured viability associated with COc1ccc(-n2nnnc2SCc2nc(N)nc(N3CCOCC3)n2)cc1
Out: 96.3

In: Note viability for the molecule shown: COc1ccc(-c2cc(C(F)(F)F)nc(NCc3cccnc3)n2)cc1
Out: 88.9

In: Read the entry O=c1c2ccccc2nc(N/N=C/c2ccccc2)n1O and write its reported viability.
Out: 101

In: Entry O=C(NCCN1CCOCC1)c1c(F)c(F)c(F)c(F)c1F needs its viability filled in; supply it.
Out: 94.7

In: Give a short answer stating reported viability for N=c1c2c(-c3ccccc3)c(-c3ccccc3)n(Cc3ccccc3)c2ncn1CCCO .
Out: 1.91

In: Indicate its recorded viability; the molecule in question is CC(C)c1ccc(-c2noc(C3CCCN(S(C)(=O)=O)C3)n2)cc1 (stereo unspecified)
Out: 82.4

In: Note viability for the molecule shown: CCn1c(/C=C/c2ccc([N+](=O)[O-])o2)nc2ccccc2c1=O
Out: 4.01

In: Given the molecule COC(=O)C1C(=O)NCC1c1ccc(OC)cc1 (stereo unspecified) , write its reported viability.
Out: 93.7

In: Quote viability reported for C=CCn1c(N)cc(=O)nc1SCC(=O)Nc1cccc2ccccc12 please.
Out: 103

In: Output viability of Cc1cc(Br)ccc1NC(=O)C1CCCO1 (stereo unspecified)
Out: 90.3

In: Read off the recorded viability for CN(C)CCNC(CC(=O)Nc1ccc(Cl)c(Cl)c1)C(=O)O (stereo unspecified)
Out: 93.2

In: Check the records and state viability for CCN1CCN(C(c2cccnc2)c2cc(Cl)c3cccnc3c2O)CC1 (stereo unspecified)
Out: 74.6

In: Using the record for O=C(NCCC1=CCCCC1)C1CCN(Cc2cnn(-c3ccccc3)c2-n2cccc2)CC1 , state its measured viability.
Out: 28.4

In: Read the entry O=C(Nc1ccc2oc(-c3ccc4ccccc4c3)nc2c1)c1cccs1 and write its reported viability.
Out: 22

In: Tell me measured viability for C1=C(CCNc2ncnc3c2cnn3-c2ccccc2)CCCC1 please.
Out: 94.9

In: Report viability for CC1=C/C(=N\OS(=O)(=O)c2ccccc2)C=CC1=O
Out: 1.29

In: # return recorded viability for entry CCCN(Cc1cc2cccc(C)c2[nH]c1=O)S(C)(=O)=O
Out: 95.8

In: Recall and state the measured viability for COC(=O)c1sc(=S)n(-c2ccc(Cl)cc2)c1C .
Out: 90

In: Supply reported viability belonging to this molecule: Cc1ccc(C(=O)NCC2CCCO2)o1 (stereo unspecified)
Out: 106

In: Give the value of viability reported for the following: COC(=O)c1nc2ccccc2s1
Out: 93.3

In: Read off the recorded viability for CC(=O)Nc1ccc(NC(=O)CSCc2cnn(-c3ccccc3)c2-n2cccc2)cc1
Out: 89.5

In: Look up and report measured viability for this entry: CCc1c(O)nc(SCC(=O)Nc2ccccc2)n(C(C)CC)c1=O (stereo unspecified)
Out: 96.5

In: Identify measured viability associated with CCN(CC)CCn1c2ccc(Cl)cc2c2nc(C)sc21
Out: 87.5

In: For the molecule Cc1nc2ccccc2c(=O)n1CCCn1ccnc1 , report viability.
Out: 92.5

In: Answer with the recorded viability of OC(COc1ccccc1)Cn1cc(Br)cn1 (stereo unspecified) only.
Out: 99.8

In: Give viability for the following molecule: COc1ccccc1/C=C/C1=NC(=C\N(C)C)/C(=O)O1
Out: 90.8

In: Tell me measured viability for O=C(c1cccc(C(=O)N2CCN(c3ccc(F)cc3)CC2)c1)N1CCN(c2ccc(F)cc2)CC1 please.
Out: 92.2

In: Item Cc1nnc(SC(C)C(=O)Nc2ccc(S(=O)(=O)NC3CCCCC3)cc2)s1 (stereo unspecified) : provide viability
Out: 104

In: Provide viability value for the following molecule: O=C(CC(O)(C(F)(F)F)C(F)(F)F)Nc1ccc(Cl)c(Cl)c1
Out: 3.08

In: Look up and report measured viability for this entry: O=C(NC1CCCCC1)c1ccc(CNc2c(N3CCOCC3)c(=O)c2=O)cc1
Out: 105

In: Input OC(CN=c1sc2ccccc2n1CC(O)COc1ccccc1)COc1ccccc1 (stereo unspecified) , output reported viability.
Out: 28.9

In: Please supply the value of reported viability for the item CCOC(=O)c1ccc(N2C(=O)CC(N(C)Cc3ccccc3)C2=O)cc1 (stereo unspecified)
Out: 92.5

In: Return viability for the following molecule: Cc1cccc(N2C(=O)c3cccnc3C2=O)c1
Out: 95.8

In: Provide viability value for the following molecule: Cc1ccc(C)c(NC2=NCC(=O)N2c2ccc3c(c2)OCCO3)c1
Out: 103

In: Name the recorded viability of the item O=C(COc1cc(Cl)c(Cl)cc1Cl)NC(=O)NC1CCCC1 in your answer.
Out: 88.8

In: Kindly indicate its recorded viability. Item: OCCCN1c2ccccc2Nc2nnc(-c3ccccc3)cc21
Out: 69.2

In: Give viability for Cc1cc(-n2nc(C)cc2C)n2nc(C)c(-c3ccccc3)c2n1
Out: 106

In: Fill in reported viability for this entry: OC(CNCC1CCCO1)Cn1c2ccc(Br)cc2c2cc(Br)ccc21 (stereo unspecified)
Out: 3.17

In: Report viability, nothing else, for this molecule: CCCCCCc1cc2cc(-c3nnc(-c4cccc(OC)c4)o3)c(=O)oc2cc1O
Out: 31.1

In: Note viability for the molecule shown: COc1ccc(-c2cc3nc(C)c(CCC(=O)NC(C)CCc4ccco4)c(C)n3n2)c(OC)c1 (stereo unspecified)
Out: 88.3
